# tgt: EGFR (form used in the assay not stated) (human, UniProt P00533 25-645, limits assumed)
# test protocol: ELISA, NEM conjugate, 10 nM
property measured: binding relative to P54AR4-83v2 parent (ratio)

# binder, property measured, observed measurement
rows = [
    ("P54AR4-83v2 P24C, NEM conjugate (designed binder, not shown: small tags and cut ends, N-ethyl maleimide (NEM) on Cys 24) LPAPKNLVVSEVTEDSARLSWDDCWAFYESFLIQYQESEKVGEAIVLTVPGSERSYDLTGLKPGTEYTVSIYGVHNVYKDTNMRGLPLSAIFTT", "binding relative to P54AR4-83v2 parent", 0.45),
    ("P54AR4-83v2 P50C, NEM conjugate (designed binder, not shown: small tags and cut ends, N-ethyl maleimide (NEM) on Cys 50) LPAPKNLVVSEVTEDSARLSWDDPWAFYESFLIQYQESEKVGEAIVLTVCGSERSYDLTGLKPGTEYTVSIYGVHNVYKDTNMRGLPLSAIFTT", "binding relative to P54AR4-83v2 parent", 0.91),
    ("P54AR4-83v2 Y72C, NEM conjugate (designed binder, not shown: small tags and cut ends, N-ethyl maleimide (NEM) on Cys 72) LPAPKNLVVSEVTEDSARLSWDDPWAFYESFLIQYQESEKVGEAIVLTVPGSERSYDLTGLKPGTEYTVSICGVHNVYKDTNMRGLPLSAIFTT", "binding relative to P54AR4-83v2 parent", 0.93),
    ("P54AR4-83v2 D80C, NEM conjugate (designed binder, not shown: small tags and cut ends, N-ethyl maleimide (NEM) on Cys 80) LPAPKNLVVSEVTEDSARLSWDDPWAFYESFLIQYQESEKVGEAIVLTVPGSERSYDLTGLKPGTEYTVSIYGVHNVYKCTNMRGLPLSAIFTT", "binding relative to P54AR4-83v2 parent", 0.7),
]

Reference source: patent US20210301025A1
